Taken from ChEMBL document CHEMBL4507258.

Tested on: UniProt:P08908
Sequence (P08908 whole entry): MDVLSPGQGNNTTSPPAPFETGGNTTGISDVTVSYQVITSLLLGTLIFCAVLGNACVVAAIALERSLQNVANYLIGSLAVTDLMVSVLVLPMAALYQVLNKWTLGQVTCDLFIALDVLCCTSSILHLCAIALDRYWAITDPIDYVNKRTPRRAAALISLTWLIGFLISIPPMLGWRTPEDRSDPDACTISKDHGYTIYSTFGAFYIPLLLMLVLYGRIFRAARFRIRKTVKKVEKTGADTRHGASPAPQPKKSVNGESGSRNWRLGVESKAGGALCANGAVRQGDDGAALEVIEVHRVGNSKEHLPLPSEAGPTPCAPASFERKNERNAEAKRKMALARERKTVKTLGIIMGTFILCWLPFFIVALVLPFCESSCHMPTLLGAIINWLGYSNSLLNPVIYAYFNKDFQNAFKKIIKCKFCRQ
pKi: −log10 of the molar value.
Measured property: pKi

# Molecule, Assay value
rows = [
    ("CCCCN(CCCC)C(=O)CN1C[C@@H](c2cc(OC)c3c(c2)OCO3)[C@H](C(=O)O)[C@H]1CC(C)(C)CCC [A-545]", 6.72),
]

---

Tested on: Sigma non-opioid intracellular receptor 1 (Homo sapiens)
Sequence (Q99720 whole entry): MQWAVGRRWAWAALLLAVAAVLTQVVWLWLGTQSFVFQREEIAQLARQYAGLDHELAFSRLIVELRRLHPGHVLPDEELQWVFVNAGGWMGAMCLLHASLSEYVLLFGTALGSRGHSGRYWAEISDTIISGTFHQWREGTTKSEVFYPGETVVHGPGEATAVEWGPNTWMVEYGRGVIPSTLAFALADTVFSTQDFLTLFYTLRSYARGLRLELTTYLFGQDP
Protocol details: GPCRScan assay: inhibition of Sigma 1
pKi: −log10 of the molar value.

# Compound, Tested on, pKi
data = [
    ("CCCCN(CCCC)C(=O)CN1C[C@@H](c2cc(OC)c3c(c2)OCO3)[C@H](C(=O)O)[C@H]1CC(C)(C)CCC [A-545]", "Sigma non-opioid intracellular receptor 1 (Homo sapiens)", 6.53),
]
